# system: Glycogen synthase kinase-3 alpha (Homo sapiens)
pIC50: −log10 of the molar value.
property: pIC50

The cases that follow already have their pIC50 on record.
compound: O=C1CCCC2=C1C1(CCOCC1)C1=C(N=NC1)N2 [US20250313563, Compound 884111]
reading: 5.30 to 6.00

compound: CC[C@@]1(c2cccc(-c3cnn(C4CCCCC4)c3)c2)C2=CN=NC2NC2=C1C(=O)NC(C)(C)C2 (stereo partly specified) [US20250313563, Compound 951707]
reading: 6.00 to 7.00

compound: CC[C@@]1(c2cccc(-c3ccncc3F)c2)C2=C(CC(C)(C)CC2=O)NC2N=NC(C(F)(F)F)=C21 (stereo partly specified) [US20250313563, Compound 947327]
reading: > 7.00

compound: CCC1(c2cccc(C(F)(F)F)c2)C2=CN=NC2NC2=C1C(=O)N(C)C(C)(C)C2 (stereo unspecified) [US20250313563, Compound 823130]
reading: > 7.00

compound: CC[C@@]1(c2cccc(C(F)(F)F)c2)C2=CN=NC2NC2=C1C(=O)N(c1cncnc1)CC2 (stereo partly specified) [US20250313563, Compound 948380]
reading: 6.00 to 7.00

compound: CC[C@]1(c2cccc(-c3cnn(CCN4CCCC4)c3)c2)C2=CN=NC2NC2=C1C(=O)NC(C)(C)C2 (stereo partly specified) [US20250313563, Compound 949510]
reading: < 5.30

GET /values?readout=pIC50&system=Glycogen synthase kinase-3 alpha (Homo sapiens)&item= CCC1(c2cccc(-c3cn(C)nc3C)c2)C2=CN=NC2NC2=C1C(=O)CC(C)(C)C2 (stereo unspecified) [US20250313563, Compound 926840]
> 7.00

Here is the next compound: CC[C@@]1(c2ccccc2)C2=C(N=NC2)NC2=C1C(=O)[C@@H]1CC[C@H]2C1 [US20250313563, Compound 791269]
6.00 to 7.00

---

# system: Glycogen synthase kinase-3 alpha (Homo sapiens, UniProt P49840)
# Sequence (P49840 whole entry): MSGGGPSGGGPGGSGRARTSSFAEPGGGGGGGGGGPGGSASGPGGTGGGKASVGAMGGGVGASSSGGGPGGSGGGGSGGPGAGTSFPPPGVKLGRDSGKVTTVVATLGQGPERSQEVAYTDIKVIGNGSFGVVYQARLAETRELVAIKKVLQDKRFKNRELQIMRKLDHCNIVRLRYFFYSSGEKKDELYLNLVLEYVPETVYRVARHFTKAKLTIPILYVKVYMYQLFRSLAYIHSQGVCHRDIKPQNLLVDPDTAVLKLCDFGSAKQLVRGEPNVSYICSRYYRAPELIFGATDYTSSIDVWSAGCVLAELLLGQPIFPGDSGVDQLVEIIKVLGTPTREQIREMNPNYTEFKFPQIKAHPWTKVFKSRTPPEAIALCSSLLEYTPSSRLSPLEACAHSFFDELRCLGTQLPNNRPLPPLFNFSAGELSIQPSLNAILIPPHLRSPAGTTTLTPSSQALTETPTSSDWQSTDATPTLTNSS
Reported IC50 is given for each of the following molecules.

The cases that follow already have their IC50 on record.
molecule: CC[C@]1(c2cccc(S(=O)(=O)CC3CC3)c2)C2=C(CC(C)(C)NC2=O)NC2N=NC(C(F)(F)F)=C21 (stereo partly drawn)
system: Glycogen synthase kinase-3 alpha (Homo sapiens, UniProt P49840)
IC50: < 100 nM
--
molecule: CC[C@@]1(c2cccc(-c3cnn(C)c3)c2)C2=CN=NC2NC2=C1C(=O)CC(C)(C)C2 (stereo partly drawn)
system: Glycogen synthase kinase-3 alpha (Homo sapiens, UniProt P49840)
IC50: 100 to 1000 nM
--
molecule: CC[C@@]1(c2cccc(-c3cnn(CC(=O)N(C)C)c3)c2)C2=CN=NC2NC2=C1C(=O)NC(C)(C)C2 (stereo partly drawn)
system: Glycogen synthase kinase-3 alpha (Homo sapiens, UniProt P49840)
IC50: 100 to 1000 nM
--
molecule: CCC1(c2cccc(C(F)(F)F)c2)C2=CN=NC2NC2=C1C(=O)N(Cc1ccccc1)CC2 (stereo not drawn)
system: Glycogen synthase kinase-3 alpha (Homo sapiens, UniProt P49840)
IC50: 100 to 1000 nM
--
molecule: CCC1(c2cccc(OC(C)C)c2)C2=CN=NC2NC2=C1C(=O)CC(C)(C)C2 (stereo not drawn)
system: Glycogen synthase kinase-3 alpha (Homo sapiens, UniProt P49840)
IC50: < 100 nM
--
molecule: Cc1ccc(C(=O)N2CC3(C2)CC2(CO3)C3=C(N=NC3)NC3=C2C(=O)CC(C)(C)C3)cc1 (stereo not drawn)
system: Glycogen synthase kinase-3 alpha (Homo sapiens, UniProt P49840)
IC50: < 100 nM
--
molecule: CCC1(c2cccc(-c3cncn3C)c2)C2=C(CC(C)(C)NC2=O)NC2N=NC(C)=C21 (stereo not drawn)
system: Glycogen synthase kinase-3 alpha (Homo sapiens, UniProt P49840)
IC50: < 100 nM
--
molecule: CC1(C)CC(=O)C2=C(C1)NC1=C(CN=N1)[C@]21CC[C@@H](c2ccncc2)CC1
system: Glycogen synthase kinase-3 alpha (Homo sapiens, UniProt P49840)
IC50: 100 to 1000 nM

Look at this molecule and give its reported IC50. CC[C@]1(c2cccc(CN(C)c3cc(C)cc(C)n3)c2)C2=CN=NC2NC2=C1C(=O)CC(C)(C)C2 (stereo partly drawn)
> 5000 nM

Here is the next molecule: CCC1(c2cccc(C(F)(F)F)c2)C2=CN=NC2NC2=C1C(=O)N(c1cccs1)CC2 (stereo not drawn)
< 100 nM

Here is the next molecule: CC[C@@]1(c2cccc(-c3cnn4c3OCCC4)c2)C2=CN=NC2NC2=C1C(=O)NC(C)(C)C2 (stereo partly drawn)
< 100 nM

Here is the next molecule: CC1(C)CC2=C(C(=O)[C@H]1F)C1(CCOCC1)C1=C(N=NC1)N2
100 to 1000 nM

Here is the next molecule: CC1(C)CC(=O)C2=C(C1)NC1=C(CN=N1)C21CN(Cc2cnc3ccccn23)C1
> 5000 nM

---

Heads up, these compounds all have IC50 values measured for Glycogen synthase kinase-3 alpha (Homo sapiens, UniProt P49840).

compound: CCC1(c2cccc(C(F)(F)F)c2)C2=CN=NC2NC2=C1C(=O)N(c1ccc(C)cc1)CC2 (stereo unspecified)
IC50: < 0.1 µM
//
compound: CC[C@]1(c2cccc(-c3ccnc4cc(F)c(F)cc34)c2)C2=CN=NC2NC2=C1C(=O)NC(C)(C)C2 (stereo partly specified)
IC50: 1 to 5 µM

GET /values?readout=IC50&system=Glycogen synthase kinase-3 alpha (Homo sapiens, UniProt P49840)&item= CC[C@]1(c2cccc(-c3ccnc(C)c3)c2)C2=CN=NC2NC2=C1C(=O)N[C@@]1(CCOC1)C2 (stereo partly specified)
< 0.1 µM

Here is the next compound: CCC1(c2cccc(N3[C@H](C)CCC[C@@H]3C)c2)C2=CN=NC2NC2=C1C(=O)CC(C)(C)C2 (stereo partly specified)
0.1 to 1 µM

Here is the next compound: CC[C@]1(c2cccc(-c3cnn(C4CC4(F)F)c3)c2)C2=CN=NC2NC2=C1C(=O)NC(C)(C)C2 (stereo partly specified)
1 to 5 µM

Here is the next compound: CC[C@@H]1C[C@]2(CCO1)C1=C(N=NC1)NC1=C2C(=O)CC(C)(C)C1
< 0.1 µM

---

pIC50: −log10 of the molar value.
Heads up, these compounds all have pIC50 values measured for UniProtKB P49841.
Sequence (P49841 whole entry): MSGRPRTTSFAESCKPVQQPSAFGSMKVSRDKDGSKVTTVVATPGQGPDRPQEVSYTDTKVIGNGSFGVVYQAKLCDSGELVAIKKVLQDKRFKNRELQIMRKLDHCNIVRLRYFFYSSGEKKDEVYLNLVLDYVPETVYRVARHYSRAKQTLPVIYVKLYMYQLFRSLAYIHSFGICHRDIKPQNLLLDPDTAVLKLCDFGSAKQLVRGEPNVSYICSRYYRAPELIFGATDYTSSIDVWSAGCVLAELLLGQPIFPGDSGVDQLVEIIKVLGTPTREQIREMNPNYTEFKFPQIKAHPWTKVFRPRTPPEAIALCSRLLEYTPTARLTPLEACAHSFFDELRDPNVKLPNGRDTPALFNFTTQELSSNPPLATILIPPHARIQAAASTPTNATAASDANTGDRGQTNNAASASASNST

compound: CC1(C)CC(=O)C2=C(C1)NC1=C(CN=N1)[C@]21C[C@@]2(CCN(CC(F)(F)F)C2)C1 [US20250313563, Compound 913138]
reading: 6.00 to 7.00

Look at this compound and give its reported pIC50. Cc1cc([C@H]2CC[C@]3(CC2)C2=C(N=NC2)NC2=C3C(=O)CC(C)(C)C2)ccn1 [US20250313563, Compound 948415]
> 7.00

Here is the next compound: C[C@@H]1CCC[C@]2(C1)C1=C(N=NC1)NC1=C2C(=O)CC(C)(C)C1 [US20250313563, Compound 893320]
> 7.00

Here is the next compound: CCC1(c2cccc(S(=O)(=O)C(C)C)c2)C2=C(CC(C)(C)NC2=O)NC2N=NC(C(F)(F)F)=C21 (stereo unspecified) [US20250313563, Compound 947800]
> 7.00

Here is the next compound: CC(C)c1nc(S(=O)(=O)N2CCC3(CC2)C2=C(N=NC2)NC2=C3C(=O)CC(C)(C)C2)cn1C [US20250313563, Compound 945663]
> 7.00

Here is the next compound: CCC1(c2cccc(N(C(C)=O)C3CCCC3)c2)C2=CN=NC2NC2=C1C(=O)CC(C)(C)C2 (stereo unspecified) [US20250313563, Compound 912069]
> 7.00

Here is the next compound: CC1(C)CC(=O)C2=C(C1)NC1N=NC=C1[C@@]21CCc2c(F)cccc21 (stereo partly specified) [US20250313563, Compound 806632]
< 5.30

Here is the next compound: CC[C@]1(c2cccc(Oc3ncccn3)c2)C2=CN=NC2NC2=C1C(=O)NC(C)(C)C2 (stereo partly specified) [US20250313563, Compound 949335]
< 5.30

Here is the next compound: CC[C@@]1(c2cccc(C(F)(F)F)c2)C2=C(CCN(c3cnc(OC)nc3)C2=O)NC2N=NC(C)=C21 (stereo partly specified) [US20250313563, Compound 949126]
6.00 to 7.00

Here is the next compound: CC[C@]1(c2cccc(-c3cnn4c3CCCC4)c2)C2=CN=NC2NC2=C1C(=O)CC(C)(C)C2 (stereo partly specified) [US20250313563, Compound 945543]
5.30 to 6.00

Here is the next compound: CCC1(c2cccc(C(C)C)c2)C2=CN=NC2NC2=C1C(=O)CC(C)(C)C2 (stereo unspecified) [US20250313563, Compound 801322]
6.00 to 7.00

Here is the next compound: CC1(C)CC(=O)C2=C(C1)NC1N=NC(C(F)(F)F)=C1C21CCCc2ccccc21 (stereo unspecified) [US20250313563, Compound 790745]
> 7.00
